# tested system: AChE type VI-S (from the electric eel) (Electrophorus electricus)
# Sequence (O42275 24-633): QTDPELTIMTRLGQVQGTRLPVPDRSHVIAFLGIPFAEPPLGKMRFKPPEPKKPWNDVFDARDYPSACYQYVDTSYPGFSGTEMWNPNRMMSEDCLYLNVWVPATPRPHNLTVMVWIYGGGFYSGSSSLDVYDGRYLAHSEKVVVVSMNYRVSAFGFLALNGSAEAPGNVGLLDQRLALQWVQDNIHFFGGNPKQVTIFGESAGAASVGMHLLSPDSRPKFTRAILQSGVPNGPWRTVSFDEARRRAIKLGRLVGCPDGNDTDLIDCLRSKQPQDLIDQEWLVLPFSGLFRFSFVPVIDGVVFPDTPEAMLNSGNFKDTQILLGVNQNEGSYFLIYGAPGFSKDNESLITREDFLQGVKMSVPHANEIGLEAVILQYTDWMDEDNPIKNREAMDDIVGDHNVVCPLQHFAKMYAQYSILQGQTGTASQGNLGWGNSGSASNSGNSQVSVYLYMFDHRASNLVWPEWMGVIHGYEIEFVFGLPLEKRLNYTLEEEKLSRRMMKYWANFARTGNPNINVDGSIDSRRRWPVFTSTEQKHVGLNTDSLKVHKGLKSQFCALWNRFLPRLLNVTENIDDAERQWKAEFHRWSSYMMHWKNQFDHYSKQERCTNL
# procedure details: AChE inhibition assay (colorimetric, DTNB reduction)
# test context: DTNB 0.5 mM, AChE 0.05 U mL^−1, acetylthiocholine iodide 0.5 mM, 37 °C, phosphate buffer pH 8.0; mean ± SD; read-out: EC50±SD (toxicity toward AChE)
Could you mark each record label 1 if its EC50 falls strictly under 3 mM, and label 0 if it equals or exceeds it?

compound: CC(C)C[C@H](N)C(=O)[O-].C[N+](C)(C)CCO [[Ch][Leu]]
class label: label 0

compound: NC(=O)CC[C@H](N)C(=O)O [[Ch][Gln]]
class label: label 0

compound: C[N+](C)(C)CCO.C[N+](C)(C)CCO.N[C@@H](CC(=O)[O-])C(=O)[O-] [[Ch][Asp]]
class label: label 0

compound: O=C(O)[C@@H]1CCCN1 [[Ch][Pro]]
class label: label 0

compound: C[N+](C)(C)CCO.N=C(N)NCCC[C@H](N)C(=O)[O-] [[Ch][Arg]]
class label: label 0

compound: C[N+](C)(C)CCO.N[C@@H](Cc1c[nH]c2ccccc12)C(=O)[O-] [[Ch][Trp]]
class label: label 1

compound: N[C@@H](CO)C(=O)O [[Ch][Ser]]
class label: label 0

compound: NC(=O)C[C@H](N)C(=O)O [[Ch][Asn]]
class label: label 0

compound: C[C@H](N)C(=O)O [[Ch][Ala]]
class label: label 0

compound: CCCCn1cc[n+](C)c1 [[Bmim][BF4], reference compound]
class label: label 1

compound: C[C@@H](O)[C@H](N)C(=O)O [[Ch][Thr]]
class label: label 0

compound: CSCC[C@H](N)C(=O)O [[Ch][Met]]
class label: label 0

compound: C[N+](C)(C)CCO.NCCCC[C@H](N)C(=O)[O-] [[Ch][Lys]]
class label: label 0

compound: C[N+](C)(C)CCO.[Cl-] [[Ch][Cl], cholinium chloride, reference compound]
class label: label 0

compound: C[N+](C)(C)CCO.N[C@@H](Cc1ccccc1)C(=O)[O-] [[Ch][Phe]]
class label: label 1

compound: CCC(C)C(N)C(=O)[O-].C[N+](C)(C)CCO (centres unmarked) [[Ch][Ile]]
class label: label 0

compound: NCC(=O)O [[Ch][Gly]]
class label: label 0

compound: N[C@@H](Cc1cnc[nH]1)C(=O)O [[Ch][His]]
class label: label 0

compound: C[N+](C)(C)CCO.N[C@@H](CCC(=O)O)C(=O)[O-] [[Ch][Glu]]
class label: label 0
